Settings: 308.15 K; 101.33 kPa; Liquid; Sing-around technique in a fixed-path interferometer
Reported speed of sound by item:
Write the number in m/s without appending the unit.

Prompt line: Please supply the value of reported speed of sound for the item `CC[n+]1ccccc1C.O=S(=O)([N-]S(=O)(=O)C(F)(F)F)C(F)(F)F`
Response line: 1277.3

More entries:
Prompt line: Please supply the value of reported speed of sound for the item `CC[n+]1cccc(C)c1.O=S(=O)([N-]S(=O)(=O)C(F)(F)F)C(F)(F)F`
Response line: 1237.5

Prompt line: Please supply the value of reported speed of sound for the item CC[n+]1ccccc1.O=S(=O)([N-]S(=O)(=O)C(F)(F)F)C(F)(F)F [1-ethylpyridinium bis[(trifluoromethyl)sulfonyl]imide]
Response line: 1246.3

Prompt line: Please supply the value of reported speed of sound for the item `CC[n+]1ccc(C)cc1.O=S(=O)([N-]S(=O)(=O)C(F)(F)F)C(F)(F)F`
Response line: 1241.2
